# targetOrTestSystem: Trace amine-associated receptor 1 (Homo sapiens) (UniProt Q96RJ0)
# Sequence (Q96RJ0 whole entry, looked up): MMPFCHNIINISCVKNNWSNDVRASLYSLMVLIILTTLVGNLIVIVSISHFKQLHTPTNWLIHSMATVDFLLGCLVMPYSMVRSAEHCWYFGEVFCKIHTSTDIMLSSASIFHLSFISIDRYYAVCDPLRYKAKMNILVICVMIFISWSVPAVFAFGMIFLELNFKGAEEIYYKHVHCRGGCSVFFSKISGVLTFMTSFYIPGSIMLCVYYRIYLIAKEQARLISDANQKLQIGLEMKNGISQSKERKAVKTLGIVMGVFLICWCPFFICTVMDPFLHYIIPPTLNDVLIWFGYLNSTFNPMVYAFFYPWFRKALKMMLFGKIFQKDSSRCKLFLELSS
# testMethodNotes: activators of TAAR1 calcium mobilization – Fluo-8 calcium fluorescence, CHO RD-HGA16 cells, primary screen (AID 624467)
# conditionsUsed: CHO RD-HGA16 TAAR1, Fluo-8 calcium fluorescence; at 3 µM; stronger effect = higher value; vehicle wells 0%, saturating PEA agonist 100%
Among all 360,000 compounds or so, about 3,600 (1%) were called active. The full list was thinned out, with actives kept by preference.
What activation was measured for each of the following?
Answers are plain numbers, in %.

Study these solved cases before continuing.
[[record]]
compound = "COc1ccc(CNC(=O)COC(=O)C(CCSC)N2C(=O)c3ccccc3C2=O)cc1 (stereo not drawn)"
targetortestsystem = "Trace amine-associated receptor 1 (Homo sapiens) (UniProt Q96RJ0)"
unitannotation = "%"
obsvalue = 9.85

[[record]]
compound = "O=C(NC1CC1)C1=C[C@H](c2c[nH]c3ccccc23)C[C@H](OCc2ccc(CO)cc2)O1"
targetortestsystem = "Trace amine-associated receptor 1 (Homo sapiens) (UniProt Q96RJ0)"
unitannotation = "%"
obsvalue = 5.4

[[record]]
compound = "O=C(COC(=O)Cc1c[nH]c2ccccc12)NCCc1ccccc1"
targetortestsystem = "Trace amine-associated receptor 1 (Homo sapiens) (UniProt Q96RJ0)"
unitannotation = "%"
obsvalue = 8.93

[[record]]
compound = "COC(=O)[C@]12C[C@H](CC(=O)NCc3cccc(C(F)(F)F)c3)C(=O)N(Cc3ccc4c(c3)OCO4)C1=C[C@H](COCc1ccccc1)O[C@@H]2C"
targetortestsystem = "Trace amine-associated receptor 1 (Homo sapiens) (UniProt Q96RJ0)"
unitannotation = "%"
obsvalue = 1.6

[[record]]
compound = "O=C(NCCCN1CCCCC1)c1ccc2c(c1)NC(=O)C(N1CCOCC1)S2 (stereo not drawn)"
targetortestsystem = "Trace amine-associated receptor 1 (Homo sapiens) (UniProt Q96RJ0)"
unitannotation = "%"
obsvalue = 3.95

[[record]]
compound = "[2H]C(CCOS(N)(=O)=O)c1ccccc1 (stereo not drawn)"
targetortestsystem = "Trace amine-associated receptor 1 (Homo sapiens) (UniProt Q96RJ0)"
unitannotation = "%"
obsvalue = -0.46

[[record]]
compound = "O=C1C=C(c2ccc(Cl)cc2)C(=O)N1Nc1ccccc1"
targetortestsystem = "Trace amine-associated receptor 1 (Homo sapiens) (UniProt Q96RJ0)"
unitannotation = "%"
obsvalue = 58.9

[[record]]
compound = "O=[N+]([O-])c1ccccc1OCCCCN1CCCCC1"
targetortestsystem = "Trace amine-associated receptor 1 (Homo sapiens) (UniProt Q96RJ0)"
unitannotation = "%"
obsvalue = 7.82

[[record]]
compound = "O=[N+]([O-])c1cc(Cl)cc(/C=N/NC(=S)Nc2cc(S(=O)(=O)N3CCOCC3)ccc2Cl)c1O"
targetortestsystem = "Trace amine-associated receptor 1 (Homo sapiens) (UniProt Q96RJ0)"
unitannotation = "%"
obsvalue = 0.47

[[record]]
compound = "O=C(NN=Cc1ccco1)C(=O)Nc1ccc(Cl)c([N+](=O)[O-])c1"
targetortestsystem = "Trace amine-associated receptor 1 (Homo sapiens) (UniProt Q96RJ0)"
unitannotation = "%"
obsvalue = 1.63


For the 7 compounds below, give their activation values.
1. Cc1ccc(Cn2c(C)c(C(=O)NCc3ccccc3C(F)(F)F)sc2=O)cc1
2. CCOc1ccc(Br)cc1S(=O)(=O)Nc1ccc(S(=O)(=O)Nc2cc(C)on2)cc1
3. O=C(N/N=C/c1cc(Cl)cc([N+](=O)[O-])c1O)C(O)(c1ccccc1)c1ccccc1
4. COC(=O)c1cc2c(c3c4cc(F)ccc4n(S(=O)(=O)c4ccccc4)c13)C(=O)N(Cc1ccccc1OC)C2
5. O=c1cnnc(Nc2ccccc2)[nH]1
6. Cc1occc1C(=O)N/N=C/c1ccc(-c2cccc([N+](=O)[O-])c2)o1
7. COC(=O)Nc1nc2ccc(C(=O)C3CC3)cc2[nH]1

### Response
1. 0.22
2. -0.13
3. 42.4
4. 0.14
5. 53
6. 4.69
7. 0.33

Provide reported activation for each item, in the same order as listed.
1. NC(=O)C1=C[C@@H](c2csc3ccccc23)C[C@@H](OCc2ccc(CO)cc2)O1
2. CCCCCOc1ccc(CSC2=NCCN2)cc1[N+](=O)[O-]
3. CCCCOc1ccc(CON(C(C)=O)C(C)=O)cc1Cl
4. CCCCOc1ccc(CSC(=N)N)cc1[N+](=O)[O-]
5. S=C(NN=C1CCN(Cc2ccccc2)CC1)NC1CCCCC1
6. CCC1=Nc2cc(C(=O)NCCCN3CCOCC3)ccc2Sc2ccc(Br)cc21
7. O=C(NCC1CCN(Cc2ccccc2Cl)CC1)Nc1cccc(Cl)c1

### Response
1: 22.2; 2: 40.3; 3: -2.24; 4: 68.2; 5: 1.76; 6: 9.87; 7: 2.1

Hey, can you go through the list below and give me activation for every item?
1. CCCc1nnc(SCC(=O)N2C(C)CCCC2C)n1CC (stereo not drawn)
2. Cc1nc2ccccc2c(C)c1C(=O)c1ccc(F)cc1
3. CCCCOC(=O)CCCc1ccc([N+](=O)[O-])cc1[N+](=O)[O-]

### Response
[7.54, 12.1, -2.61]

Hi there! I need activation for each item below, if you can.
1. Nc1[nH]c(C(=O)c2ccc(Br)cc2)c(-c2ccc3c(c2)OCO3)c1C(=O)NCCc1c[nH]c2ccccc12
2. CC(Oc1ccc(Cl)cc1)C(=O)Nc1ncccn1 (stereo not drawn)
3. CCOc1ccc(C(=O)Nc2nccs2)cc1[N+](=O)[O-]
4. COC(=O)C1=C(C)N(Cc2ccc(C(F)(F)F)cc2)C(=NCc2ccccc2)NC1c1ccccc1C(F)(F)F (stereo not drawn)

### Response
1: 6.41; 2: -0.09; 3: 5.29; 4: 5.43

// each listed compound needs a value for activation
1. CC(=O)c1c(N2CCN(c3ccc(F)cc3)CC2)nc(=S)n(-c2ccccc2)c1C
2. CCOC(=O)[C@]12CCCC=C1N(CCC1=CCCCC1)C(=O)[C@H](CC(=O)NCCCOC)C2
3. COc1ccc(C(=O)NC(=O)CSc2nnc(-c3ccco3)n2-c2ccccc2)cc1
4. CCCC1CCC(=NNC(=S)NCCc2ccccc2)CC1 (stereo not drawn)
5. Cc1cc(OCCCC(=O)NCCN2C(=O)S/C(=C\c3cccnc3)C2=O)ccc1Cl
6. CCCCNC(=S)N/N=C1\CCCCc2ccccc21

### Response
-0.41
-0.95
1.34
54.9
16.7
-2.14

Hi there! I need activation for each item below, if you can.
1. NC(=O)C1=C[C@H](c2csc3ccccc23)C[C@H](OCc2ccc(CO)cc2)O1
2. O=C(COC(=O)Cc1ccccc1F)NCCc1ccccc1
3. CCOC(=O)c1cc2c(=O)[nH]c(C(Cl)(Cl)Cl)nc2o1
4. Cc1cc(=O)[nH]c(Nc2cccc(Br)c2)n1
5. COc1ccc(CCNC(=O)COC(=O)Cc2ccccc2F)cc1
6. O=C(NCCc1ccc(Cl)cc1)C1CCCN1C(=O)NCc1ccccc1 (stereo not drawn)

### Response
1. 60.3
2. 47.4
3. 2.83
4. 26.1
5. 2.06
6. -0.77
